Biological target: T1, CGH-1_(248–420) F261A (C. elegans, UniProt Q95YF3 248-420, F261A)
T1 construct: Mutant of m1 made with the MutanBEST kit; source: E. coli Gold (DE3), purified (Ni-chelating resin, SEC Superdex 75)
T1 sequence (looked up): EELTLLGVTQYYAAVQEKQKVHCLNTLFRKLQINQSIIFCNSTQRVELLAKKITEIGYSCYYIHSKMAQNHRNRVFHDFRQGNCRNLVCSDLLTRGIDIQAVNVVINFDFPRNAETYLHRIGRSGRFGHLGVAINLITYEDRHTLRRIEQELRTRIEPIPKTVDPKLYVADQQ
Assay: ITC; ligand (peptide or CAR-1 fragment, 0.5 mM) injected into CGH-1_(248-420) or mutant (0.05 mM) in the cell; 20 °C; Buffer B (20 mM Tris-HCl pH 7.5, 150 mM NaCl); one-binding-site model
Settings: both partners purified
pKd: −log10 of the molar value.
readoutKind: pKd

[
  {
    "binder": "SDEDHNIFDDEFDAANDETFGGGLDNIGENAELENYAT (PATR-1 (Pat1 ortholog), C. elegans, residues 30-67; Printed with free NH2 and COOH ends; also called PATR1_30-67^WT; CePATR-1 peptide; source: synthetic peptide (GL Biochem, Shanghai)) [PATR-1 peptide (CePATR-1_(30–67))]",
    "number": 5.18
  }
]
